- ASSAY NAME: Cellular uptake of Lutein (free form) in CaCo-2 cells
- Format: in vitro ADME
- ASSAY CONDITIONS: human, 10 mg Lutein/100 mL medium, alone or plus 160 mg bilberry extract or 180 mg Bil/Cys, 37° C., 0-120 min, read-out: Total uptake of Lutein (AUC0-120min, trapezoidal rule) (converted)
OBSERVABLE: AUC(0-t) at 10 mg/100 mL (ng·h/mL)
Response body: numeric value in ng·h/mL, unit text excluded.

Can you look up the measured AUC(0-t) at 10 mg/100 mL of CC1=C[C@H](O)CC(C)(C)[C@H]1/C=C/C(C)=C/C=C/C(C)=C/C=C/C=C(C)/C=C/C=C(C)/C=C/C1=C(C)C[C@@H](O)CC1(C)C for me?
2250

====

- ASSAY NAME: Cellular uptake of Lutein (free form) in CaCo-2 cells
- Assay type: in vitro ADME
- ASSAY CONDITIONS: human, 10 mg Lutein/100 mL medium, alone or plus 160 mg bilberry extract or 180 mg Bil/Cys, 37° C., 30, 60, 120 minutes
- Method: CaCo-2 cells were cultured in Dulbeccos's Modified Eagle Medium containing 20% fetal bovine serum, 1.2% nonessential amino acids, 0.83 mM L-glutamine, 1.2% penicillin-streptomycin and 0.1% mercaptoethanole in an atmosphere of 5% CO2 and 95% air at 37° C. […] Quantification was performed by external standardization after linear regression analysis. […]
OBSERVABLE: Cmax at 10 mg/100 mL (ng/mL)
Response body: numeric value in ng/mL, unit text excluded.

Can you look up the measured Cmax at 10 mg/100 mL of CC1=C[C@H](O)CC(C)(C)[C@H]1/C=C/C(C)=C/C=C/C(C)=C/C=C/C=C(C)/C=C/C=C(C)/C=C/C1=C(C)C[C@@H](O)CC1(C)C for me?
1530
